Recorded measurements of normalized growth, one per entry
- Method notes: chemical genetic growth profiling, strain panel (AID 1159580);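 also: tested at 20 µM; growth read once vehicle control cultures reached saturation at 30 °C; 1 = growth at the plate median or of vehicle wells; lower values mean less growth of the strain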
- Stated conditions: S. cerevisiae deletion strains, growth OD, locus YLR320W, strain mms22, active compounds read low
About 2,000 (36%) of roughly 5,500 compounds were called active. Another 18% or so got no clear call; they are omitted. The list shows a part of the results.
Just the number, please, no unit attached.

Examples with answers:
COC(=O)[C@@H]1OC(=O)[C@H]2O[C@@]23[C@@]1(C)CCC1[C@@]2(C)CCC(=O)C(C)(C)C2C[C@@H](OC(C)=O)[C@]13C (some centres undefined) | 0.995
C=C1CCC(C2CC(=O)OC2=O)C(=O)CCC2C1CC2(C)C (centres undefined) | 0.999
Cc1cccc(C)c1NC1=NCCCS1 | 0.994

Challenge: Return reported normalized growth; argument: NS(=O)(=O)c1cc2c(cc1Cl)NC(C(Cl)Cl)NS2(=O)=O (centres undefined)
Response given: 0.972

Challenge: What about C=C1CCC(OC(C)=O)/C(C)=C/C[C@@H]2[C@@H]1CC2(C)C (some centres undefined) ?
Response given: 0.972

Challenge: What about CC1C[C@H]2CC(=O)[C@H]3CCCN4CCC[C@H]2[C@]34C1 (some centres undefined) ?
Response given: 1.02

Challenge: What about COc1ccc2c(c1OC)C(=O)OC2[C@H]1c2c(cc3c(c2OC)OCO3)CCN1C (some centres undefined) ?
Response given: 0.975

Challenge: What about `COc1ccc2c(c1)O[C@H]1c3ccc(OC)cc3OC[C@@H]21` ?
Response given: 1.02

Challenge: What about `NC(N)=NS(=O)(=O)c1ccc(N)cc1` ?
Response given: 0.992

---

Recorded measurements of normalized growth, one per entry
- Method notes: chemical genetic growth profiling, strain panel (AID 1159580);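 also: tested at 20 µM; growth read once vehicle control cultures reached saturation at 30 °C; 1 = growth at the plate median or of vehicle wells; lower values mean less growth of the strain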
- Stated conditions: S. cerevisiae deletion strains, growth OD, locus YPR167C, strain met16, active compounds read low
Among all 5,500 compounds or so, about 2,000 (36%) were called active. Another 18% or so got no clear call; they are omitted. This is one part of the list.

COc1ccc([C@H]2Oc3cc(OC)cc(OC)c3C[C@H]2O)cc1 | 1.01 (inactive)
COc1ccc2c(c1OC)C(=O)OC2[C@H]1c2c(cc3c(c2OC)OCO3)CCN1C (stereo partly specified) | 0.986 (inactive)

Challenge: Return reported normalized growth; argument: Oc1ccc2c(c1)OCC1c3cc4c(cc3OC21)OCO4 (stereo unspecified)
Response given: 1.01 (inactive)

Challenge: What about CCCNC1CCc2nc(N)sc2C1 (stereo unspecified) ?
Response given: 1.01 (inactive)

Challenge: What about CC1(C)C2CC(=O)[C@]3(C)C(CC[C@@]4(C)[C@H](c5ccoc5)OC(=O)[C@H]5O[C@]543)[C@@]2(C)C=C[C@@H]1O (stereo partly specified) ?
Response given: 0.985 (inactive)

Challenge: What about COc1ccc2c(c1O)OCC1c3cc4c(cc3OC21)OCO4 (stereo unspecified) ?
Response given: 0.984 (inactive)

---

- Method notes: chemical genetic growth profiling, strain panel (AID 1159580);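 also: tested at 20 µM; growth read once vehicle control cultures reached saturation at 30 °C; 1 = growth at the plate median or of vehicle wells; lower values mean less growth of the strain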
- Stated conditions: S. cerevisiae deletion strains, growth OD, locus YMR263W, strain SAP30, active compounds read low
Hit rate of the full screen: of about 5,500 compounds, about 2,000 (36%) were called active. Roughly 18% stayed inconclusive and do not appear here. The list shows a part of the results.
Recorded measurements of normalized growth, one per entry
Just the number, please, no unit attached.

Challenge: Return reported normalized growth; argument: `N#Cc1c(N)oc(-c2ccco2)c1-c1ccco1`
Response given: 0.917

Challenge: What about OC(CN1CCN(c2nc3ccc(Cl)cc3s2)CC1)CN1CCCN(c2ncc(C(F)(F)F)cc2Cl)CC1 (centres undefined) ?
Response given: 1.02

Challenge: What about `CC(=O)CC(=O)Nc1ccccc1Cl` ?
Response given: 0.999

Challenge: What about `CC(=O)Oc1c(C)cccc1C(=O)O` ?
Response given: 1.01

These measurements were taken from PubChem BioAssay AID1159580.
